target: T1, MSLN·His protein (human, UniProt Q13421 296-580, limits assumed); assay: SPR (Biacore), antibody captured on protein A, MSLN·His as analyte
T1 construct: Bought protein; also called human MSLN·His antigen; not shown: His tag
T1 sequence (Q13421 other isoform, or with tags, fused parts or gaps limits assumed): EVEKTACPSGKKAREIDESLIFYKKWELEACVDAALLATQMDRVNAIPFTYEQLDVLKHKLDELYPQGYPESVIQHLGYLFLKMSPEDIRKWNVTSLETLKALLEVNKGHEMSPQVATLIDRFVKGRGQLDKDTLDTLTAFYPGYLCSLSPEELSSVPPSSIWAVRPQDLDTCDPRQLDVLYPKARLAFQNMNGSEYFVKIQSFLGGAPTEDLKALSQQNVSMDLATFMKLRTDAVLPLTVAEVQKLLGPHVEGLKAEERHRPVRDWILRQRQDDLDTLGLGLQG

BINDER	MEASUREMENT_UNITS	kon
M2339-z11-5 (antibody, IgG4, V domains shown, Humanized variant of M2339) VH: EVQLVASGGGLVQPGGSLRLSCALSGFTLRELDEFAIGWFRQAPGKEREGVSCISGTGGITHYADSVKGRFTISRDNSKTTVYLQMNSLNAEDTAVYYCAADERCTDRLIRPPTYWGQGTQVTVSS	M⁻¹ s⁻¹	233000
M2339-z11-17 (antibody, IgG4, V domains shown, Humanized variant of M2339) VH: ELQLGASGGGLVQPGGSLRLSCALSGFTLRELDEFAIGWFRQAPGKEREGVSCISGTGGITHYADSVKGRFTISRDNSKNTLYLQMNSLRAEDTAVYYCAADERCTDRLIRPPTYWGQGTQVTVSS	M⁻¹ s⁻¹	39300
M2339-z11-1 (antibody, IgG4, V domains shown, Humanized variant of M2339) VH: EVQLVASGGGLVQPGGSLRLSCALSGFTLRELDEFAIGWFRQAPGKEREGVSCISGTGGITHYADSVKGRFTISRDNSKTTVYLQMNSLRAEDTAVYYCAADERCTDRLIRPPTYWGQGTQVTVSS	M⁻¹ s⁻¹	102000
M2339-z11-7 (antibody, IgG4, V domains shown, Humanized variant of M2339) VH: ELQLGASGGGLVQPGGSLRLSCALSGFTLRELDEFAIGWFRQAPGKEREGVSCISGTGGITHYADSVKGRFTISRDNSKTTVYLQMNSLRAEDTAVYYCAADERCTDRLIRPPTYWGQGTQVTVSS	M⁻¹ s⁻¹	39800
M2339-z11-13 (antibody, IgG4, V domains shown, Humanized variant of M2339) VH: QLQLGASGGGLVQPGGSLRLSCALSGFTLRELDEFAIGWFRQAPGKEREGVSCISGTGGITHYADSVKGRFTISRDNSKTTVYLQMNSLNSEDTAVYYCAADERCTDRLIRPPTYWGQGTQVTVSS	M⁻¹ s⁻¹	65200
M2339-z11-8 (antibody, IgG4, V domains shown, Humanized variant of M2339) VH: QLQLGESGGGLVQPGGSLRLSCALSGFTLRELDEFAIGWFRQAPGKEREGVSCISGTGGITHYADSVKGRFTISRDIAKTTVYLQMNSLNSEDTAVYYCAADERCTDRLIRPPTYWGQGTQVTVSS	M⁻¹ s⁻¹	44300
M2339-z11-9 (antibody, IgG4, V domains shown, Humanized variant of M2339) VH: QLQLVASGGGLVQPGGSLRLSCALSGFTLRELDEFAIGWFRQAPGKEREGVSCISGTGGITHYADSVKGRFTISRDIAKTTVYLQMNSLNSEDTAVYYCAADERCTDRLIRPPTYWGQGTQVTVSS	M⁻¹ s⁻¹	83800
M2339-z11-3 (antibody, IgG4, V domains shown, Humanized variant of M2339) VH: ELQLVASGGGLVQPGGSLRLSCALSGFTLRELDEFAIGWFRQAPGKEREGVSCISGTGGITHYADSVKGRFTISRDNSKTTVYLQMNSLRAEDTAVYYCAADERCTDRLIRPPTYWGQGTQVTVSS	M⁻¹ s⁻¹	47400

Data provenance is patent US20240190986A1.
